- SYSTEM TESTED: COX-2 (Mus musculus)
- Sequence (Q05769 18-604): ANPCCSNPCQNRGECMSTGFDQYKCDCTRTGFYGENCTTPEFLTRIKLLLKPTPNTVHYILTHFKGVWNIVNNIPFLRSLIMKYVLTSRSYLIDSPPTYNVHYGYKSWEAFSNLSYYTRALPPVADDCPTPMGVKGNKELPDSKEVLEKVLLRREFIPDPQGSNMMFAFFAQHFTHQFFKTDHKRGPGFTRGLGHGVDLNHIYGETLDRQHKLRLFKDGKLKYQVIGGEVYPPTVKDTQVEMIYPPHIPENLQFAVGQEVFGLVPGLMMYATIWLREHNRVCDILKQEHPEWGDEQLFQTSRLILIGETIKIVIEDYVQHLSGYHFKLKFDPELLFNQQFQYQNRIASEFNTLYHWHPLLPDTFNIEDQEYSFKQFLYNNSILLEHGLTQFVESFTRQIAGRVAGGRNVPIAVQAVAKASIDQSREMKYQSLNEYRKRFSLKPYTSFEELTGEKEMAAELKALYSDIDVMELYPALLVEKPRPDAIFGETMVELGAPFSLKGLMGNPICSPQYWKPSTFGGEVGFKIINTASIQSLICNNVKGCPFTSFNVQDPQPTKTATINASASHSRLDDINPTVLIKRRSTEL
- PROTOCOL DESCRIPTION: COX-2 associated PGE2 synthesis in LPS-stimulated RAW 264.7 cells
- Format: cell-based, murine
pIC50: −log10 of the molar value.

SMILES CODE	SYSTEM TESTED	pIC50
C[C@H]1[C@H](C)CC[C@]2(C(=O)O)CC[C@]3(C)C(=CC[C@@H]4[C@@]5(C)CC[C@H](O)C(C)(C)[C@@H]5CC[C@]43C)[C@H]12	COX-2 (Mus musculus)	5.38
